Reported pIC50 values are given for each entry in this list.
- Tested system: Acetylcholinesterase from Electrophorus electricus (Electrophorus electricus)
- Construct: purchased Sigma-Aldrich
- Assay protocol: biochemical
- Format: biochemical
- Assay setup: mean ± SD, triplicate; 30 min at 25 °C, absorbance 405 nm; read-out: Acetylcholinesterase IC50
pIC50: −log10 of the molar value.
Observable: pIC50

- Molecule: "COC1=C(Br)[C@H](O)[C@@]2(C=C1Br)CC(C(=O)NC[C@@H](O)COc1c(Br)cc([C@H](O)CNC(=O)C3=NO[C@]4(C=C(Br)C(OC)=C(Br)[C@@H]4O)C3)cc1Br)=NO2 [epi-fistularin-3 (1), 11-epi-fistularin-3]"
  Assay result: "< 5.00"
- Molecule: "COC1=C(Br)[C@H](O)[C@@]2(C=C1Br)CC(C(=O)NC[C@@H](O)COc1c(Br)cc([C@H](O)CNC(=O)/C(Cc3cc(Br)c(OC)c(Br)c3O)=N/O)cc1Br)=NO2 [suberein-1 (2), suberein-1]"
  Assay result: "< 5.00"
- Molecule: "COC1=C(Br)[C@H](O)[C@@]2(C=C1Br)CC(C(=O)NCCCOc1c(Br)cc(C(O)CNC(=O)C3=NO[C@]4(C=C(Br)C(OC)=C(Br)[C@@H]4O)C3)cc1Br)=NO2 (stereo partly drawn) [11-deoxyfistularin-3 (13), 11-deoxyfistularin-3]"
  Assay result: "< 5.00"

###

- Tested system: Acetylcholinesterase from Electrophorus electricus (Electrophorus electricus, UniProt O42275)
- Construct: purchased Sigma-Aldrich
- Sequence (O42275 24-633): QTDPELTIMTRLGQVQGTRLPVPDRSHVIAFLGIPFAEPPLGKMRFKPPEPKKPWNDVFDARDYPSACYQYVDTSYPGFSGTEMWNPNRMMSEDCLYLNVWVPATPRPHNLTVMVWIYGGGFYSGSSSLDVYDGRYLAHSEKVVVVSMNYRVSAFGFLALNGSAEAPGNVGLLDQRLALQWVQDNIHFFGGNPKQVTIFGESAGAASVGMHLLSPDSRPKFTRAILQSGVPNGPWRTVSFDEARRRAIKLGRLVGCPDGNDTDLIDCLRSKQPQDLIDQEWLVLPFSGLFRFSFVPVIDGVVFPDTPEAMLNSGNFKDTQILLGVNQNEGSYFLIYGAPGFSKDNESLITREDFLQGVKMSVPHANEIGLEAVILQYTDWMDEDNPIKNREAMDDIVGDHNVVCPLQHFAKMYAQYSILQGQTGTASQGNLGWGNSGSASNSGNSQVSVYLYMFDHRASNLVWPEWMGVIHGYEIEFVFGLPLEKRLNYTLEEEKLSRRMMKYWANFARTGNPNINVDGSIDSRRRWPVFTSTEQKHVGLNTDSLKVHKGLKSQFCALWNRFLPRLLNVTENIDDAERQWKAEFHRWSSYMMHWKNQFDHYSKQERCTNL
- Assay protocol: biochemical
- Type: biochemical
- Assay setup: mean ± SD, triplicate; 30 min at 25 °C, absorbance 405 nm; read-out: Acetylcholinesterase IC50
pIC50: −log10 of the molar value.
Observable: pIC50

- Compound: "COC1=C(Br)[C@H](O)[C@@]2(C=C1Br)CC(C(=O)NC[C@@H](O)c1cc(Br)c(OC[C@H](O)CNC(=O)/C(Cc3cc(Br)c(OC)c(Br)c3O)=N/O)c(Br)c1)=NO2"
  Inequality sign: "<"
  Assay result: 5.00
- Compound: "COC1=C(Br)[C@H](O)[C@@]2(C=C1Br)CC(C(=O)NCCC(O)CNC(=O)C1=NO[C@]3(C=C(Br)C(OC)=C(Br)[C@@H]3O)C1)=NO2 (stereo partly shown) [11-hydroxyaerothionin (15), 11-hydroxy-aerothionin]"
  Inequality sign: "="
  Assay result: 5.00
- Compound: "COC1=C(Br)[C@H](O)[C@@]2(C=C1Br)CC(C(=O)NCCc1cc(Br)c(OC[C@H](O)CNC(=O)C3=NO[C@]4(C=C(Br)C(OC)=C(Br)[C@@H]4O)C3)c(Br)c1)=NO2 [17-deoxy-11-epi-fistularin-3 (10), 17-deoxy-11(R)-epi-fistularin-3]"
  Inequality sign: "<"
  Assay result: 5.00
- Compound: "COC1=C(Br)C(O)C2(C=C1Br)CC(C(=O)NCCCOc1c(Br)cc(CCNC(=O)C3=NOC4(C=C(Br)C(OC)=C(Br)C4O)C3)cc1Br)=NO2 (stereo not shown)"
  Inequality sign: "="
  Assay result: 5.00
